src = patent US20250250251A1

- protocol text: Assay C: permeability in CACO-2 cells
- Type: in vitro ADME
- test conditions: human, Caco-2, pH 7.2
Provide the reported Papp A→B of each item.
Provide only the numeric value, understood in ×10⁻⁶ cm/s.

GET /value?item= Cn1cnnc1C1CCN(c2c(C#N)cccc2-c2ccc3ocnc3c2)CC1 [Compound 15, reference compound] &field=Papp A→B returns 11

GET /value?item= Cn1cnnc1C1CCN(c2c(C#N)cccc2-c2cncc3c2cnn3C)CC1 [Compound 4, reference compound] &field=Papp A→B returns 0.3

GET /value?item= Cn1cnnc1C1CCN(c2c(C#N)cccc2-c2cnc3cn[nH]c3c2)CC1 [Compound 125, reference compound] &field=Papp A→B returns 0.6

====

Provide the reported efflux ratio of each item.
- protocol text: Assay C: permeability in CACO-2 cells
- Assay type: in vitro ADME
- test conditions: human, pH 7.2; Table 7, compounds of the invention, CACO-2 cells, permeability B-A/permeability A-B; read-out: Efflux Ratio
- Experimental: Caco-2 cells (1-2×10^5 cells/1 cm^2 area) are seeded on filter inserts (Costar transwell polycarbonate or PET filters, 0.4 μm pore size) and cultured (DMEM) for 10 to 25 days. Compounds are dissolved in appropriate solvent (like DMSO, 1-20 mM stock solutions). […] The transport solution (TL) is applied to the apical or basolateral donor side for measuring A-B or B-A permeability (3 filter replicates), respectively. […]
// keep it numeric: no unit symbol after the value

GET /value?item= Cn1cnnc1C1(F)CCN(c2c(C#N)cc(-c3cccnc3)nc2-c2cnc3nn(C(F)(F)F)cc3c2)CC1 [Example 21] &field=efflux ratio returns 11.9

GET /value?item= Cn1cnnc1C1(F)CCN(c2c(C#N)cc(C3CC3(F)F)nc2-c2ccnnc2)CC1 (stereo not shown) [Example 6] &field=efflux ratio returns 36.1

GET /value?item= Cn1cnnc1C1(F)CCN(c2c(C#N)cc(C(F)(F)F)nc2-c2cnc3nn(C(C)(C)C)c(C4CC4)c3c2)CC1 [Example 26] &field=efflux ratio returns 4.8

GET /value?item= Cn1cnnc1C1(F)CCN(c2c(C#N)cc(C(F)(F)F)nc2-c2cnc3nn(C(C)(C)C)cc3c2C(F)F)CC1 [Example 15] &field=efflux ratio returns 10.9

====

Provide the reported CACO2 Perm. of each item.
- System: CACO-2 cells
- protocol text: Assay C: permeability in CACO-2 cells
- Assay type: in vitro ADME
- test conditions: pairs with and without 4-fluoropiperidyl, CACO2 cells

The observed CACO2 Perm. for Cn1cnnc1C1(F)CCN(c2c(C#N)cc(C(F)(F)F)nc2-c2cnc3nn(C(C)(C)C)c(C(F)(F)F)c3c2)CC1 [Example 4 in EP 23189886.7] when tested with CACO-2 cells stands at 99.5 10^−6 cm/sec

The observed CACO2 Perm. for Cn1cnnc1C1(F)CCN(c2c(C#N)cc(F)cc2-c2ccc(F)nc2)CC1 [Example 6 in EP 23161417.3] when tested with CACO-2 cells stands at 44.0 10^−6 cm/sec

The observed CACO2 Perm. for Cn1cnnc1C1(F)CCN(c2c(C#N)cccc2-c2ccnnc2)CC1 [Example 52 in EP 22216126.7] when tested with CACO-2 cells stands at 15.0 10^−6 cm/sec

The observed CACO2 Perm. for Cn1cnnc1C1(F)CCN(c2c(C#N)cccc2-c2cnc3nn(C(C)(C)C)cc3c2)CC1 [Example 62 in EP 22216126.7] when tested with CACO-2 cells stands at 4.9 10^−6 cm/sec

The observed CACO2 Perm. for Cn1cnnc1C1CCN(c2c(C#N)cc(Cl)cc2-c2cnc3nn(C(C)(C)C)cc3c2)CC1 [Example 17 in EP 23161417.3] when tested with CACO-2 cells stands at 2.5 10^−6 cm/sec

The observed CACO2 Perm. for "Cn1cnnc1C1CCN(c2c(C#N)cc(F)cc2-c2cnc3nn(C(C)(C)C)c(C(F)(F)F)c3c2)CC1" when tested with CACO-2 cells stands at 17.0 10^−6 cm/sec

The observed CACO2 Perm. for Cn1cnnc1C1CCN(c2c(C#N)ccnc2-c2ccc(F)nc2)CC1 [Compound 133 in WO 2024/020517] when tested with CACO-2 cells stands at 4.8 10^−6 cm/sec

The observed CACO2 Perm. for "Cn1cnnc1C1(F)CCN(c2c(C#N)cc(F)cc2-c2cnc3nn(C(C)(C)C)c(C(F)(F)F)c3c2)CC1" when tested with CACO-2 cells stands at 51.0 10^−6 cm/sec

The observed CACO2 Perm. for Cn1cnnc1C1(F)CCN(c2c(C#N)cc(C(F)(F)F)nc2-c2cnc3nn(C(C)(C)C)c(Cl)c3c2)CC1 [Example 3 in EP 23189886.7] when tested with CACO-2 cells stands at 47.0 10^−6 cm/sec

The observed CACO2 Perm. for Cn1cnnc1C1CCN(c2c(C#N)cc(C(F)(F)F)nc2-c2cnc3nn(C(C)(C)C)c(C(F)(F)F)c3c2)CC1 [Example 13 in EP 23189886.7] when tested with CACO-2 cells stands at 3.7 10^−6 cm/sec

The observed CACO2 Perm. for Cn1cnnc1C1CCN(c2c(C#N)cccc2-c2ccc(F)nc2)CC1 [(1)/QP5020, reference compound] when tested with CACO-2 cells stands at 28.0 10^−6 cm/sec

The observed CACO2 Perm. for Cn1cnnc1C1CCN(c2c(C#N)cccc2-c2ccnnc2)CC1 [Compound 11] when tested with CACO-2 cells stands at 0.3 10^−6 cm/sec

The observed CACO2 Perm. for Cn1cnnc1C1CCN(c2c(-c3ccc(F)nc3)ccnc2C#N)CC1 [Compound 132 in WO 2024/020517] when tested with CACO-2 cells stands at 1.8 10^−6 cm/sec

The observed CACO2 Perm. for Cn1cnnc1C1(F)CCN(c2c(C#N)cc(Cl)cc2-c2ccc(F)nc2)CC1 [Example 18 in EP 23161417.3] when tested with CACO-2 cells stands at 66.0 10^−6 cm/sec

The observed CACO2 Perm. for "Cn1cnnc1C1CCN(c2c(C#N)cc(C(F)(F)F)nc2-c2cnc3nn(C(C)(C)C)c(Cl)c3c2)CC1" when tested with CACO-2 cells stands at 1.0 10^−6 cm/sec
